Source of measurements: ChEMBL document CHEMBL6071151

This section presents molecules with their documented MIC values.
system: Staphylococcus aureus; assay: Antimicrobial activity against Staphylococcus aureus ATCC 29213 assessed as reduction in microbial growth measured after 20 hrs by CLSI based broth microdilution method; assay type: functional
The figure you give is taken to be in µg/mL; do not add the unit.

Recorded MIC, per entry:
O=[N+]([O-])c1ccc(OCC(O)CNCCNc2ncccc2C(F)(F)F)cc1 (configuration not stated): 128
OC(CNCCNc1ccccc1C(F)(F)F)COc1ccccc1C(F)(F)F (configuration not stated): 32
O=[N+]([O-])c1ccc(NCCNCC(O)COCc2ccc(C(F)(F)F)cc2)nc1 (configuration not stated): 64
OC(CNCCNc1ccc(C(F)(F)F)cn1)CNc1ccc(C(F)(F)F)cc1 (configuration not stated): 32

Tell us which MIC value is on record for O=[N+]([O-])c1ccc(OCC(O)CNCCNc2ncc(C(F)(F)F)cn2)cc1 (configuration not stated)
256

###

Reported MIC values are given for each entry in this list.
tested on: Acinetobacter baumannii; assay: Antimicrobial activity against Acinetobacter baumannii ATCC 19606 assessed as reduction in microbial growth measured after 20 hrs by CLSI based broth microdilution method; format: functional

O=[N+]([O-])c1ccccc1NCCNCC(O)COc1ccc(C(F)(F)F)cc1 (stereo unspecified): > 256 µg/mL
OC(CNCCNc1ccc(-c2ccccc2)cc1)COc1ccc(C(F)(F)F)cc1 (stereo unspecified): > 256 µg/mL
COc1ccc(OCC(O)CNCCNc2nccc(C(F)(F)F)n2)cc1 (stereo unspecified): > 256 µg/mL
OC(CNCCNc1ccccc1C(F)(F)F)COCc1cccc(C(F)(F)F)c1.OC(CNCCNc1ccccc1C(F)(F)F)COCc1cccc(C(F)(F)F)c1 (stereo unspecified): > 256 µg/mL
OC(CNCCNc1ccccc1C(F)(F)F)CSc1ccc(C(F)(F)F)cc1 (stereo unspecified): > 256 µg/mL
O=[N+]([O-])c1ccc(OCC(O)CNCCNc2cc(C(F)(F)F)ccn2)cc1 (stereo unspecified): > 256 µg/mL
OC(CNCCNc1ccccc1C(F)(F)F)COCc1ccccc1C(F)(F)F (stereo unspecified): > 256 µg/mL
COC(=O)c1ccc(OCC(O)CNCCNc2nccc(C(F)(F)F)n2)cc1 (stereo unspecified): > 256 µg/mL

Write down MIC measured for item O=[N+]([O-])c1ccc(OCC(O)CNCCNc2nccc(C(F)(F)F)n2)cc1 (stereo unspecified)
> 256 µg/mL

Return the recorded MIC value; entry: OC(CNCCNc1nccc(C(F)(F)F)n1)COc1ccccc1 (stereo unspecified)
> 256 µg/mL

Please look at this molecule and report its MIC: O=[N+]([O-])c1ccc(OCC(O)CNCCNc2ccc(F)cn2)cc1 (stereo unspecified)
> 256 µg/mL
